assay: Pharmacokinetics in female BALB/c nude mice bearing A375 xenografts, 1 day dosing (PK and PD study): plasma, tumor and brain concentrations, AUC; type: in vivo; conditions: mouse, tumor, po, 3 mg/kg, 3 mg/kg p.o. BID × 1 day; post 2nd dose; 4 h; read-out: Mean Concentration in Tumor ± SEM
test_readout: concentration at 4 h (ng/g)
Field format: number, assumed ng/g, no unit text.

Q: For the compound CCN(C)S(=O)(=O)Nc1ccc(F)c(Oc2ccc3ncn([C@H]4COC5(CCN(C6CC7(C6)CN(c6cc8c(cc6F)c(N6CCC(=O)NC6=O)nn8C)C7)CC5)C4)c(=O)c3c2)c1C#N [Compound 26] , what concentration at 4 h is on record?
Ans: 1060

All values here come from patent US20260297060A1.
